Tested on: Wolbachia pipientis
procedure-text: Anti-Wolbachia Cell-Based Screen
Type: functional
Design: scale not given: in the data most compounds retested in dose-response had high values
protocol-conditions: 5 µM
Hit rate of the full screen: of about 48,000 compounds, about 13,000 (27%) showed an effect of 50% or more. Some of the results follow.
Quick reference: Percent Effect of the listed items.
Dear colleague, please return just the value in %, with no unit written.

Would you please look over these solved cases?
COc1cccc(CN2CCCCCC2c2cccc(C)c2)c1O (stereo not given) ... -3.31
COc1cccc(COCC(=O)N2CCCC2Cn2cccn2)c1 (stereo not given) ... 116
Cc1cccc(CN2CCCCC2c2n[nH]cc2-c2cc(C)no2)c1.Cl (stereo not given) ... 91.3
COc1ccc2cc(C(=O)N3CCCCC3Cn3cccn3)[nH]c2c1 (stereo not given) ... -2.712

We next turn to a different compound, shown below.
# input Any idea what Percent Effect was measured for Cc1cc(C2CCCN2Cc2nc(-c3ccco3)no2)on1 (stereo not given) ?
# output 9.843

----------
Tested on: Wolbachia pipientis
procedure-text: Anti-Wolbachia Cell-Based Screen
Assay type: functional
Parameters: scale not given: in the data most compounds retested in dose-response had high values
protocol-conditions: 5 µM
Hit rate of the full screen: of about 48,000 compounds, about 13,000 (27%) showed an effect of 50% or more. This is one part of the list.
Reported Percent Effect values for the following compounds.
Kindly provide the numeric value in % only, without the unit symbol.

O=C(c1cccnc1)N1CCc2c(COCC3CC3)cncc2C1 ... 11.19

# input For Wolbachia pipientis, provide Percent Effect of `O=C(c1ccncc1)N1CCc2c(COCC3CC3)cncc2C1` please.
# output -2.638

# input Then this compound: `CCc1cc(N[C@H]2CCC[C@H]2O)n2nccc2n1`
# output -17.41

# input And what about the compound `O=C(Nc1cccnc1)c1ccc(-n2cncn2)nn1` ?
# output 4.763

----------
Percent Effect values by entry
Tested on: Wolbachia pipientis
procedure-text: Anti-Wolbachia Cell-Based Screen
Type: functional
Parameters: scale not given: in the data most compounds retested in dose-response had high values
protocol-conditions: 5 µM
Out of some 48,000 compounds screened, about 13,000 (27%) showed an effect of 50% or more. Some of the results follow.

O=C(CCc1c[nH]cn1)N1CC[C@@H](c2ccc3ccccc3c2)[C@H](O)C1 ... -1.023%
COCC1(C(=O)N2CCC(c3nccn3CC3CC3)CC2)CCC1 ... 2.579%
Cc1noc(C)c1CNC(=O)c1ccc(NC2CC2)nc1 ... 4.161%

# input Could you tell me which Percent Effect is on file for c1nc2c(c(NCCCn3cncn3)n1)CCN(CC1CCOC1)CC2 (centres undefined) ?
# output 11.83%

# input Quick one: `CC(C)N(Cc1cccnc1)C(=O)CSc1ccc(C#N)cc1`
# output -11.42%

# input Now the same for `COCCN(Cc1ccc(F)cc1Cl)C(=O)c1ccncc1`
# output -4.791%

# input What about `Cc1ncc(CNC(=O)c2oc3ccccc3c2CN(C)C)s1` ?
# output -2.973%

# input And the next one, Cc1ncc(CNC(=O)CCc2c(C)noc2C)c(C2CCCN2C)n1 (centres undefined) ?
# output 116.8%

# input O=c1c2cccc(Cl)c2ncn1C1CCNC1 (centres undefined) , same question.
# output 5.785%

----------
Test system: Wolbachia pipientis
procedure-text: Anti-Wolbachia Cell-Based Screen
Assay type: functional
Parameters: scale not given: in the data most compounds retested in dose-response had high values
protocol-conditions: 5 µM
Out of some 48,000 compounds screened, about 13,000 (27%) showed an effect of 50% or more. The list shows a part of the results.
A collection of molecules and their measured Percent Effect
Dear colleague, please return just the value in %, with no unit written.

CN(Cc1ccco1)Cc1cncc2c1CCN(Cc1ccoc1)C2.Cl.Cl.Cl ... 96.91
COc1cc(S(=O)(=O)Nc2cn[nH]c2)ccc1Br ... 20.8
O=C1N(CCCc2ccccc2)CCCC12CCN(C(CO)CO)C2 (stereo not drawn) ... 4.777
N#Cc1ccc(CN2C[C@@H]3OCC(=O)N[C@@H]3C2)cc1 ... -14.55
Cl.Cl.c1cnc(NCc2cncc3c2CCN(Cc2ccoc2)C3)nc1 ... 0.8556
CCCc1cc(C(=O)N2CCC3(CC2)CN(CCN(C)C)C(=O)O3)no1 ... -10.71
CC1CCN(C(=O)[C@@H]2C[C@H]3OCC[C@H]3N(Cc3ccoc3)C2)CC1.O=C(O)C(F)(F)F ... -6.203
CN1CCN(c2ccc(NS(=O)(=O)c3ccc(Cl)s3)cc2C(=O)O)CC1 ... 118.1

# input Hello, I am looking for reported Percent Effect with Wolbachia pipientis for O=C1NCc2ccccc2CC12CCCN(Cc1ccsc1)C2 (stereo not drawn) . Could you help?
# output 112.5

# input Entry `Cn1nccc1-c1ccc2nc(C3CCN(CC4CC4)CC3)nn2c1.O=C(O)C(F)(F)F.O=C(O)C(F)(F)F` please
# output 97.48

# input Field entry: O=C1NCc2ccccc2CC12CCCN(CCCc1ccccc1)C2 (stereo not drawn)
# output 107.4

# input Can you handle `CC(C)N1CCC(c2nc3ccc(-c4ccnn4C)cn3n2)CC1.O=C(O)C(F)(F)F` next?
# output 101.4

# input Repeat with CN(C)C1CCN(Cc2cnc(S(C)(=O)=O)n2CC2CCCCC2)C1 (stereo not drawn)
# output -18.29

# input Note, next up: `CCCN(CCOC)c1nc(C)nc2sccc12`
# output -21.15

# input // same read-out, input: `CCc1ccc(S(=O)(=O)Nc2cc(C(=O)O)c(F)cc2F)s1`
# output -4.689

# input CCNc1ncc(C(=O)NCC2OCCc3ccccc32)cn1 (stereo not drawn) ?
# output -9.42

# input Further, for `Cc1ccc(F)c2c1N(C(=O)c1ccc(S(C)(=O)=O)cc1)CCC2` ?
# output 11.45

# input Would you mind doing `Cn1nccc1-c1ccc2nc(C3CCNCC3)nn2c1` as well?
# output 98.45

----------
System: Wolbachia pipientis
procedure-text: Anti-Wolbachia Cell-Based Screen
Type: functional
Parameters: scale not given: in the data most compounds retested in dose-response had high values
protocol-conditions: 5 µM
The campaign covered roughly 48,000 compounds. About 13,000 (27%) showed an effect of 50% or more. Some of the results follow.
Below, each entry is listed alongside its reported Percent Effect.
Returns: string containing the number followed by the unit.

Study these solved cases before continuing.
COC(C)c1noc(CN(C)c2nccnc2C#N)n1 (stereo not given) ... 3.907%
Cc1ccc(CN2CCC3(CC2)CN(c2ccccc2)C(=O)CO3)o1.O=C(O)C(F)(F)F ... 119.8%

# input So what's the measured Percent Effect for this one? `Cn1cccc1CN1CCC2(CC1)CN(c1ncccn1)CCO2.O=C(O)C(F)(F)F`
# output 0.2482%

# input Again, but for `CCc1ccc(CN2CCC3(CC2)CNC(=O)CO3)o1.O=C(O)C(F)(F)F`
# output -11.34%

# input Queued: `CCSc1ncc(CN2CCN(c3nc(C)ncc3C)CC2)cn1`
# output 0.05242%

----------
Tested on: Wolbachia pipientis
procedure-text: Anti-Wolbachia Cell-Based Screen
Type: functional
Set-up: scale not given: in the data most compounds retested in dose-response had high values
protocol-conditions: 5 µM
Among all 48,000 compounds or so, about 13,000 (27%) showed an effect of 50% or more. This is one part of the list.
compounds and their reported Percent Effect
Field format: number, assumed %, no unit text.

O=C(O)c1cncc(Cc2ccc(F)cc2)c1 ... 214.7
O=C(O)c1ccc(Cc2cccc(F)c2)nc1 ... 176.5
CC(C)Cc1cc(NC(=O)c2ccc(=O)[nH]n2)n(C)n1 ... 9.079

Pending compound:
# input Find the recorded Percent Effect belonging to `CC(=O)c1cccc(S(=O)(=O)N2CCC(c3noc(C)n3)CC2)c1` and report it.
# output -3.648

----------
Test system: Wolbachia pipientis
procedure-text: Anti-Wolbachia Cell-Based Screen
Assay type: functional
Set-up: scale not given: in the data most compounds retested in dose-response had high values
protocol-conditions: 5 µM
Among all 48,000 compounds or so, about 13,000 (27%) showed an effect of 50% or more. The list shows a part of the results.
recorded-metric: Percent Effect (%)
Respond with the bare value in %.

Cn1nc2c(cc1=O)CN(Cc1ccc(-n3cccn3)cc1)CC2 ... 6.074
O=C(CCC1CCN(Cc2ncc[nH]2)CC1)Nc1ccccc1Cl ... 0.1939
CNc1nc(C(=O)N2CCn3nc(C(=O)OC)cc3C2)cs1 ... 99.12
O=C(NCCNc1ccc(C(F)(F)F)cn1)c1cc(Cl)ccc1F ... 114.8
O=C(NCCNc1ccc(C(F)(F)F)cn1)c1ccc(F)cc1Cl ... 145.5
CNc1nc(C(=O)N2CCCC(CO)(CCCOC)C2)cs1 (configuration not stated) ... -13.19

# input # Percent Effect lookup, item `O=C(NCCNc1ccc(C(F)(F)F)cn1)c1ccc(Br)cc1`
# output 145.4
